- assaySystem: cloned human μ-opioid receptor (Homo sapiens, UniProt P35372)
- Construct: expressed in transfected cells
- Sequence (P35372 whole entry): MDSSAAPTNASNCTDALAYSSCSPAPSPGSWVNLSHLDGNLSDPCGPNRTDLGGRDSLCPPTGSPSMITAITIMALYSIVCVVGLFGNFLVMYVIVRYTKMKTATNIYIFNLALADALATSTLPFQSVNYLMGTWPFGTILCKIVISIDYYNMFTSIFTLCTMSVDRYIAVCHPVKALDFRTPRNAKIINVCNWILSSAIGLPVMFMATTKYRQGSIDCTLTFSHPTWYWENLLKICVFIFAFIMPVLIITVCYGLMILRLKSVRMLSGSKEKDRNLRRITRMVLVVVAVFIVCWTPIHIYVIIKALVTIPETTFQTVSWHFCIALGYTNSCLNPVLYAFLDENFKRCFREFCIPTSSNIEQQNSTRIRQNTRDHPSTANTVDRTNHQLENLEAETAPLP
- assayText: Inhibition of DAMGO-stimulated [35S]GTPγS binding
- Assay type: biochemical
log10(Kb) values for the compounds below.
Each number you see is log10 of Kb, and the unit inside the log is nM.

INSERT INTO results (compound, numericresult) VALUES
  ('Cc1cccc(Oc2ccc(C(=O)N[C@H](CN3CCN(c4cccc(O)c4)[C@@H](C)C3)C(C)C)c(O)c2)c1.Cl.Cl [Compound 19l, Dihydrochloride]', 2.16),
  ('CC(C)[C@@H](CN1CCN(c2cccc(O)c2)[C@@H](C)C1)NC(=O)c1ccc(Oc2cccc(C(F)(F)F)c2)cc1 [Compound 19b]', 1.32),
  ('Cc1cccc(Oc2ccc(C(=O)N[C@H](CN3CCN(c4cccc(O)c4)[C@@H](C)C3)C(C)C)c(C)c2)c1.Cl.Cl [Compound 19j, Dihydrochloride]', 1.15),
  ('COc1cc(C(=O)N[C@H](CN2CCN(c3cccc(O)c3)[C@@H](C)C2)C(C)C)ccc1Oc1cc(C)ccc1O.Cl.Cl [Compound 19o, Dihydrochloride]', 1.00);

Reported log10(Kb) ( CC(C)[C@@H](CN1CCN(c2cccc(O)c2)[C@@H](C)C1)NC(=O)c1ccc(Oc2ccccc2)nc1.Cl.Cl.Cl [Compound 7b, Trihydrochloride] ) = 1.78
